# experimental.target: Glucocorticoid receptor (Homo sapiens)
# Sequence (P04150 whole entry): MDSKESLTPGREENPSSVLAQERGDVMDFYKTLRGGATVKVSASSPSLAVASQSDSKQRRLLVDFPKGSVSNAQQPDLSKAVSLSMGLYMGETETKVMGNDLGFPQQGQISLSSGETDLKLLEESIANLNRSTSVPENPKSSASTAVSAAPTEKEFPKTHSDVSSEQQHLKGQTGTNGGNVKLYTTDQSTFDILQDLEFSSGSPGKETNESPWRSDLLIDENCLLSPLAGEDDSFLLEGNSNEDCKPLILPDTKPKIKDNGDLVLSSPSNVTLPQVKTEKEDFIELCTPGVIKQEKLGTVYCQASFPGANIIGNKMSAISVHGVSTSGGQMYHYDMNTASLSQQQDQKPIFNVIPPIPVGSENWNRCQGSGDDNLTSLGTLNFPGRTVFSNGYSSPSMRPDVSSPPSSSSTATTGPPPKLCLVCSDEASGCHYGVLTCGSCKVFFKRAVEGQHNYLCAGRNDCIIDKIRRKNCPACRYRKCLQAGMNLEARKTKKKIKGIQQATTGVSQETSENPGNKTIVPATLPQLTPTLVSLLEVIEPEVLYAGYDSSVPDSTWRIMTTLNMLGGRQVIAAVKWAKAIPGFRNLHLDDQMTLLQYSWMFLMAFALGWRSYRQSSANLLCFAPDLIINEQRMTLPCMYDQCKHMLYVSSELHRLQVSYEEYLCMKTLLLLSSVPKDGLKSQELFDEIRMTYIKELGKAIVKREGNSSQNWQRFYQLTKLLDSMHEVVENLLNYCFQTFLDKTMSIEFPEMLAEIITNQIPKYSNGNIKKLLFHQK
# assay.method.text: Transrepression of glucocorticoid receptor in human A549 cells assessed as inhibition of PMA-induced AP-1 activity by luciferase reporter gene assay
# Assay type: cell-based
Here the recorded pEC50 is given for each entry.
Would you please state pEC50, meaning minus log10 of the concentration in mol/L, as a bare number?

A selection of reference data follows.
compound | pEC50
CC(C)(C(=O)Nc1nncs1)C(c1ccccc1)c1ccc2c(-c3ccc(F)cc3F)ncn2c1 (stereo not given) | 7.82
CC(C)(C(=O)Nc1nccs1)C(c1ccccc1)c1ccc2c(ccn2-c2ccc(F)cc2)c1 (stereo not given) | 6.66
CC(C)(C(=O)Nc1nncs1)C(c1ccccc1)c1ccc2c(-c3cccc(C#N)c3)ncn2c1 (stereo not given) | 5.87

Please turn your attention to the following entry.
Prompt: Entry CC(C)(C(=O)Nc1nccs1)C(c1ccccc1)c1ccc2c(-c3cccc(C#N)c3)ncn2c1 (stereo not given) : reported pEC50 = ?
Response: 6.65

Hey, just so you know, these numbers are from ChEMBL document CHEMBL2424642.
